Source: patent US20240246946A1

- targetDesc: full length mouse TREX1 (Mus musculus, UniProt Q91XB0)
- Construct: N-terminally His-Tev tagged full length mouse TREX1; made in house; host or cells: E. coli
- Sequence (Q91XB0 whole entry): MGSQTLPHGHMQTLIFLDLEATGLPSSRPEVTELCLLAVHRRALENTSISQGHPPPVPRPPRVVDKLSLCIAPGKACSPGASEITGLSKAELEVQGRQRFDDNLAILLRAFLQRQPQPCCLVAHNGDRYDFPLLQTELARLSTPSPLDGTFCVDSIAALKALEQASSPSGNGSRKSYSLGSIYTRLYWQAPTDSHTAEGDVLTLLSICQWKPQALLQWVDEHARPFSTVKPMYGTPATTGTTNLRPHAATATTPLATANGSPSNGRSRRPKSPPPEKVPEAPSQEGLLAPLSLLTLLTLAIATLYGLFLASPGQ
- measurementProtocol: mTREX1 Biochemical Assay (fluorescence, dsDNA substrate degradation)
- measurementContext: biochemical, read-out: mTREX1 IC50
metricName: IC50

Example compounds with recorded IC50:
| compound | IC50 |
| --- | --- |
| Cc1cnc(C)c(C(c2ccccc2Cl)C(C)c2nc(C(=O)Nc3cnoc3)c(O)c(=O)n2C)n1 (single isomer, unassigned) [Example 120 D1E2] | > 0.01 µM |
| Cc1n[nH]c(C)c1C(c1ccccc1C#N)C(C)c1nc(C(=O)Nc2cnoc2)c(O)c(=O)n1C (single isomer, unassigned) [Example 95 D2E1] | > 0.01 µM |
| CCn1cc(C(c2ccc(F)cc2C#N)C(C)c2nc(C(=O)Nc3cnoc3)c(O)c(=O)n2C)cn1 (single isomer, unassigned) [Example 16 D1E1] | < 0.001 µM |

[ask] Please indicate IC50 recorded for CCn1cc(C(c2ccc(F)cc2C#N)C(C)c2nc(C(=O)Nc3cnoc3)c(O)c(=O)n2C)c(C)n1 (single isomer, unassigned) [Example 55 D2E2]
[reply] > 0.01 µM
